Origin of measurements: patent US12064426B2

# TARGET: Recombinant ROCK2 (amino acids 5-554) (Homo sapiens, UniProt O75116)
# Construct: ROCK2 (amino acids 5-554); by word order, ROCK2 from SignalChem
# Sequence (O75116 5-554): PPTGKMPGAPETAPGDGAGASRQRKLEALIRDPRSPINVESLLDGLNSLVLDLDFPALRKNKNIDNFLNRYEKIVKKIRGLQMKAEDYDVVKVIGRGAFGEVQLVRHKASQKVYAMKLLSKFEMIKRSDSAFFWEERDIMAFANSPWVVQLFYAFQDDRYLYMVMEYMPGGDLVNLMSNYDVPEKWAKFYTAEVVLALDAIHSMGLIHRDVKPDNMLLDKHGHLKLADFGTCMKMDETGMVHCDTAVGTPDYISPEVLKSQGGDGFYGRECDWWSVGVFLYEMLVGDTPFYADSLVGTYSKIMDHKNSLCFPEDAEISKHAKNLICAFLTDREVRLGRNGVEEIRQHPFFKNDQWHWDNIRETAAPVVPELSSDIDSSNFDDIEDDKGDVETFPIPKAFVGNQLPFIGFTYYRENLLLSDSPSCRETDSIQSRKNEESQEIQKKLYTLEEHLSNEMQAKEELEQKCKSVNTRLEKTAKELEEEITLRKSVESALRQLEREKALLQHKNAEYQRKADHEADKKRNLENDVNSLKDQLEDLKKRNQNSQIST
# RUN_DESCRIPTION: ROCK inhibition assay, LANCE Ultra TR-FRET kinase assay (ROCK2)
# RUN_CONDITIONS: 4 μM ATP, 50 nM ULight-CREBtide substrate
pIC50: −log10 of the molar value.
MEASURE: pIC50

## Task Value lookup for pIC50; key = O=C(NCC1COC1)c1cccc(Cn2ccc3cc(-c4c[nH]nc4C(F)(F)F)ccc3c2=O)c1
## Result > 8.00

###

Below, each entry is listed alongside its reported IC50.
# TARGET: Recombinant ROCK2 (amino acids 5-554) (Homo sapiens)
# Construct: ROCK2 (amino acids 5-554); by word order, ROCK2 from SignalChem
# RUN_DESCRIPTION: ROCK inhibition assay, LANCE Ultra TR-FRET kinase assay (ROCK2)
# RUN_CONDITIONS: 4 μM ATP, 50 nM ULight-CREBtide substrate

COc1cc(F)cc(Cn2ccc3cc(-c4c[nH]nc4Cl)ccc3c2=O)c1	< 10 nM
Cc1nocc1-c1ccc2c(=O)n(Cc3cccc(C(=O)Nc4ccc5c(c4)COCC5)c3)ccc2c1	< 10 nM
Cc1nocc1-c1ccc2c(=O)n(Cc3cccc(C(=O)Nc4ccn(C)n4)c3)ccc2c1	100 to 500 nM
CNC(=O)c1cc(F)cc(Cn2ccc3cc(-c4ccoc4C)ncc3c2=O)c1	> 500 nM
C[C@H](c1cccc(C(=O)N(C)C)c1)n1cnc2cc(-c3cn[nH]c3C(F)(F)F)ccc2c1=O	> 500 nM
[2H]C([2H])([2H])NC(=O)c1cc(F)cc(Cn2ccc3cc(-c4cn[nH]c4C(F)(F)F)ccc3c2=O)c1	< 10 nM
CN1CCC(NC(=O)c2cc(F)cc(Cn3ccc4cc(-c5c[nH]nc5Cl)ncc4c3=O)c2)CC1	< 10 nM
Cc1nocc1-c1ccc2c(=O)n(Cc3cccc(C(=O)NCC4CCNCC4)c3)cnc2c1	< 10 nM
Cc1nocc1-c1ccc2c(=O)n(Cc3cccc(C(=O)NCCc4cccnc4)c3)cnc2c1	< 10 nM
CNC(=O)c1cccc(C(C)n2cc(CCO)c3cc(-c4cn[nH]c4F)ccc3c2=O)c1 (stereo not drawn)	< 10 nM

## Task Value lookup for IC50; key = O=C(NCC1CCN(C2CC2)CC1)c1cc(F)cc(Cn2ccc3cc(N4CCOCC4)ccc3c2=O)c1
## Result 10 to 100 nM

## Task Value lookup for IC50; key = CNC(=O)c1cccc(Cn2cc(CCN(C)C)c3cc(-c4ccnn4C)ccc3c2=O)c1
## Result < 10 nM

###

Below, each entry is listed alongside its reported pIC50.
# TARGET: Recombinant ROCK2 (amino acids 5-554) (Homo sapiens)
# Construct: ROCK2 (amino acids 5-554); by word order, ROCK2 from SignalChem
# RUN_DESCRIPTION: ROCK inhibition assay, LANCE Ultra TR-FRET kinase assay (ROCK2)
# RUN_CONDITIONS: 4 μM ATP, 50 nM ULight-CREBtide substrate
pIC50: −log10 of the molar value.

CN1CCC(CNC(=O)c2cccc(Cn3cnc4cc(-c5cn[nH]c5C(F)F)ccc4c3=O)c2)CC1 [Compound 395]	> 8.00
Cn1nccc1-c1ccc2c(=O)n(Cc3cccc(C(=O)NC4CCNCC4)c3)ccc2c1 [Compound 105]	> 8.00
O=C(NCC1CCOCC1)c1cccc(Cn2ccc3cc(-c4c[nH]nc4C(F)(F)F)ccc3c2=O)c1 [Compound 52]	> 8.00
CN1CCC(CNC(=O)c2cccc(Cn3cnc4cc(-c5cn[nH]c5Cl)ccc4c3=O)c2)CC1 [Compound 410]	> 8.00
Nc1cc(-c2ccc3c(=O)n(Cc4cccc(C(=O)Nc5ccc6c(c5)COCC6)c4)ccc3c2)ccn1 [Compound 197]	7.00 to 8.00

## Task Value lookup for pIC50; key = CC(=O)Nc1cc(Cn2ccc3cc(-c4cnoc4C)ccc3c2=O)ccc1F [Compound 335]
## Result 7.00 to 8.00

## Task Value lookup for pIC50; key = CNC(=O)c1cccc(Cn2cc(CCO)c3cc(-c4cn[nH]c4F)ccc3c2=O)c1 [Compound 555]
## Result > 8.00

## Task Value lookup for pIC50; key = O=C(N[C@H]1CC[C@@H](O)CC1)c1cc(F)cc(Cn2ccc3cc(-c4c[nH]nc4Cl)ncc3c2=O)c1 [Compound 262]
## Result > 8.00

## Task Value lookup for pIC50; key = Cc1nocc1-c1ccc2c(=O)n(Cc3cccc(C(=O)N[C@H]4C[C@H](O)C4)c3)ccc2c1 [Compound 73]
## Result 7.00 to 8.00
